assay: OC study 2: EE and LN PK with/without ritlecitinib 50 mg QD; assay type: in vivo, human; details: female, human, plasma, oral, 50 mg
readoutType: AUC(0-t) (ng·h/mL)
Write it as a number; the unit ng·h/mL goes unstated.

• C#C[C@]1(O)CC[C@H]2[C@@H]3CCC4=CC(=O)CC[C@@H]4[C@H]3CC[C@@]21CC [LN, levonorgestrel] = 29.6

Please look at the following molecule next.
What does the record list as AUC(0-t) for C#C[C@]1(O)CC[C@H]2[C@@H]3CCc4cc(O)ccc4[C@H]3CC[C@@]21C [EE, ethinyl oestradiol] ?
0.605

----------
assay: OC study 1: EE and LN PK with/without ritlecitinib 200 mg QD; assay type: in vivo, human; conditions: female, human, plasma, oral, Cmax, adjusted geometric mean (test), 1 Portia tablet (EE 30 μg and LN 150 μg) on Day 10 of ritlecitinib 200 mg QD × 11 days; plasma; healthy females
Measured Cmax values are reported for all entries that follow.
Write it as a number; the unit ng/mL goes unstated.

- C#C[C@]1(O)CC[C@H]2[C@@H]3CCC4=CC(=O)CC[C@@H]4[C@H]3CC[C@@]21CC: 3.03

Please look at the following molecule next.
What does the record list as Cmax for C#C[C@]1(O)CC[C@H]2[C@@H]3CCc4cc(O)ccc4[C@H]3CC[C@@]21C ?
0.0606

----------
experiment: OC study 1: EE and LN PK with/without ritlecitinib 200 mg QD; type: in vivo, human; settings: female, human, plasma, oral, AUCinf, adjusted geometric mean (reference), 1 Portia tablet (EE 30 μg and LN 150 μg) alone; healthy females
readoutType: AUC(0-inf)
Please answer using a numeric value trailed by its unit.

What does the record list as AUC(0-inf) for C#C[C@]1(O)CC[C@H]2[C@@H]3CCc4cc(O)ccc4[C@H]3CC[C@@]21C ?
0.8 ng·h/mL

Origin of the recorded values: paper PMC12304827
